Test system: OVCAR-5 ovarian
Assay: NCI tumour cell line growth inhibition, 48 h; in the data active = GI50 below about 0.43 µM; inactive = the rest
# valid calls are YES for active, NO for inactive; nothing else

Would you mind telling me which call this test gave CN(C)c1ccc(C(=C2C=CC(=[N+](C)C)C=C2)c2ccccc2Cl)cc1 ? YES

Would you mind telling me which call this test gave COc1ccc(C(=O)OC2C(OC3C(O)COC(O[C@H]4C[C@H]5[C@@H]6CC=C7C[C@@H](O)CC[C@]7(C)[C@H]6CC[C@]5(C)[C@H]4[C@H](C)C(=O)CCC(C)C)C3OC(C)=O)OCC(O)C2O)cc1 (some centres undefined) ? YES

Would you mind telling me which call this test gave CC(=O)/C(=C\c1c(-c2ccccc2)[nH]c2ccccc12)S(=O)(=O)c1ccccc1 ? NO

Would you mind telling me which call this test gave C[C@@](O)(/C=C/[C@H]1CC=CC(=O)O1)[C@@H](C[C@@H](O)\C=C/C=C\C=C\CO)OP(=O)(O)O ? NO

Sourced from PubChem BioAssay (NCI)
